All values here come from patent US20210008104A1.

# Tested Target: human DNA polymerase β (Homo sapiens, UniProt P06746)
pKd: −log10 of the molar value.
Reported Endpoint: pKd

Q: Return reported pKd; argument: O=P(O)(O)OP(=O)(O)O [PPi, pyrophosphate]
A: ~4.05
